Where these numbers come from: PubChem BioAssay AID1159580

test: chemical genetic growth profiling, strain panel (AID 1159580);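 note: tested at 20 µM; growth read once vehicle control cultures reached saturation at 30 °C; 1 = growth at the plate median or of vehicle wells; lower values mean less growth of the strain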; conditions: S. cerevisiae deletion strains, growth OD, locus YHR142W, strain chs7, stronger effect = lower value
The whole screen tested about 5,500 compounds, of which about 2,000 (36%) were called active. Not shown: some 18% with an inconclusive outcome. The list shows a part of the results.
property_label: normalized growth
Answers are plain numbers.

molecule	reading
COc1ccc(-c2coc3cc(OC(C)=O)cc(OC(C)=O)c3c2=O)cc1	0.874
COc1cc2c3cc1Oc1cc(ccc1O)C[C@@H]1c4c(cc(OC)c(O)c4Oc4ccc(cc4)C[C@@H]3N(C)CC2)CC[N+]1(C)C	1
CC1(C)O[C@@H]2CC3C4C[C@H](F)C5=CC(=O)C=C[C@]5(C)[C@@]4(F)[C@@H](O)C[C@]3(C)[C@]2(C(=O)CO)O1 (stereo partly drawn)	1.03
CCC(CCC(C)[C@H]1CCC2C3CC=C4C[C@@H](O)CC[C@]4(C)C3CC[C@@]21C)C(C)C (stereo partly drawn)	1.02
C=CCc1ccccc1OCC(O)CNC(C)C (stereo not drawn)	1.01
Cn1c(=O)c2[nH]c(C3CCCC3)nc2n(C)c1=O	1

For every listed record, write down its normalized growth.
1. CCC(/C=C/[C@@H](C)[C@H]1CCC2C3CC=C4C[C@@H](O)CC[C@]4(C)C3CC[C@@]21C)C(C)C (stereo partly drawn)
2. Cc1cc2cc3c(C)cc(=O)oc3c(C)c2o1
3. FC(F)(F)C(Cl)Br (stereo not drawn)
4. CC(=O)OCC(=O)[C@H]1CCC2C3CC=C4C[C@@H](O)CC[C@]4(C)C3CC[C@@]21C (stereo partly drawn)

1.02
0.944
1.03
0.593

List normalized growth for every entry below, keeping the order given.
1. CC(=O)OCC(=O)[C@@]1(O)CCC2C3CC[C@@H]4C[C@H](O)CC[C@]4(C)C3C(=O)C[C@@]21C (stereo partly drawn)
2. Nc1nnc(-c2cccc(Cl)c2Cl)c(N)n1
3. COc1cc([C@@H]2c3cc4c(cc3[C@H](O)[C@H]3COC(=O)[C@@H]23)OCO4)cc(OC)c1OC

[1.02, 1.02, 1.03]

Quick one: give me normalized growth for each item below, same order please.
1. O=C(O)/C=C(\CC(=O)O)C(=O)O
2. S=c1ccss1
3. C[C@@H]1CC[C@@]2(OC1)OC1C(O)C3C4CC[C@H]5C[C@H](O[C@@H]6O[C@H](CO)[C@H](O[C@@H]7O[C@H](CO)[C@@H](O)[C@H](O[C@@H]8OC[C@@H](O)[C@H](O)[C@H]8O)[C@H]7O[C@@H]7O[C@H](CO)[C@H](O)[C@H](O[C@@H]8O[C@H](CO)[C@@H](O)[C@H](O)[C@H]8O)[C@H]7O)[C@H](O)[C@H]6O)[C@H](O)C[C@]5(C)C4CC[C@]3(C)C1[C@@H]2C (stereo partly drawn)
4. CC(=O)[C@H]1CCC2C3CC=C4C[C@@H](O)CC[C@]4(C)C3CC[C@@]21C (stereo partly drawn)
5. CC1=NCCc2c1[nH]c1cc(O)ccc21

1.01
0.94
0.876
0.862
0.968

* * *

Task for the reader: assign each of the following compounds its reported normalized growth.
assay: chemical genetic growth profiling, strain panel (AID 1159580);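 note: tested at 20 µM; growth read once vehicle control cultures reached saturation at 30 °C; 1 = growth at the plate median or of vehicle wells; lower values mean less growth of the strain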; conditions: S. cerevisiae deletion strains, growth OD, locus YOR144C, strain elg1, stronger effect = lower value
Screen size: about 5,500 compounds; about 2,000 (36%) were called active. Another 18% or so got no clear call; they are omitted. The list shows a part of the results.
Numbers only.

compound	normalized growth
C[C@@H]1CC[C@@]2(OC1)OC1C(O)C3C4CC[C@H]5C[C@H](O[C@@H]6O[C@H](CO)[C@H](O[C@@H]7O[C@H](CO)[C@@H](O)[C@H](O[C@@H]8OC[C@@H](O)[C@H](O)[C@H]8O)[C@H]7O[C@@H]7O[C@H](CO)[C@H](O)[C@H](O[C@@H]8O[C@H](CO)[C@@H](O)[C@H](O)[C@H]8O)[C@H]7O)[C@H](O)[C@H]6O)[C@H](O)C[C@]5(C)C4CC[C@]3(C)C1[C@@H]2C (stereo partly specified)	0.0588

Consider the following items and state reported normalized growth for each.
1. CC(C)=CCc1c2c(c(O)c3c(=O)c(O)c(-c4ccccc4)oc13)C=CC(C)(C)O2
2. CC(=O)O[C@H]1C[C@H](O[C@H]2[C@@H](O)C[C@H](O[C@H]3[C@@H](O)C[C@H](O[C@H]4CC[C@@]5(C)C(CCC6C5C[C@@H](O)[C@]5(C)[C@@H](C7=CC(=O)OC7)CC[C@]65O)C4)O[C@@H]3C)O[C@@H]2C)O[C@H](C)[C@H]1O[C@@H]1O[C@H](CO)[C@@H](O)[C@H](O)[C@H]1O (stereo partly specified)

0.893
1

For every item below, please supply its normalized growth.
1. C=C1C2CC[C@@]3(C)[C@H](c4ccoc4)OC(=O)C[C@]13O[C@H]1CC(=O)C(C)(C)[C@H](C(O)C(=O)OC)[C@@]21C (stereo partly specified)
2. CC1=C2C(=CO[C@H](C)[C@H]2C)C(=O)C(C(=O)O)=C1O
3. Cn1c(=O)c2[nH]c(C3CCCC3)nc2n(C)c1=O
4. C[n+]1cc2c3c(ccc2c2ccc4cc5c(cc4c21)OCO5)OCO3

1: 1; 2: 0.981; 3: 0.998; 4: 0.0651

Provide normalized growth for all items below, preserving their order.
1. O=c1c2ccccc2[se]n1-c1ccccc1
2. COC(=O)C[C@H]1C(C)(C)C(=O)[C@@H]2CC3=C4CC(OC)O[C@@H](c5ccoc5)[C@]4(C)CCC3[C@@]1(C)C2=O (stereo partly specified)
3. COc1cc2cc[n+]3cc4c(OC)c(OC)ccc4cc3c2cc1OC
4. C=C1C(N)CC2CC1C2(C)C (stereo unspecified)
5. NS(=O)(=O)c1cc2c(cc1C(F)(F)F)NCNS2(=O)=O
6. O=c1oc2ccccc2c(O)c1Cc1c(O)c2ccccc2oc1=O
7. O=c1c2ccccc2oc2ccc(O)cc12
8. COc1ccc2cc3[n+](cc2c1OC)CCc1cc2c(cc1-3)OCO2

1. 1.01
2. 0.988
3. 0.983
4. 1
5. 0.991
6. 0.968
7. 0.943
8. 0.586

Could you share which normalized growth value was measured for Cc1coc2ccccc2c1=O ?
1.01
